MEASURED_TARGET: hERG channel (Homo sapiens)
Construct: expressed in transfected cells; host or cells: CHO-K1
Sequence (Q12809 whole entry): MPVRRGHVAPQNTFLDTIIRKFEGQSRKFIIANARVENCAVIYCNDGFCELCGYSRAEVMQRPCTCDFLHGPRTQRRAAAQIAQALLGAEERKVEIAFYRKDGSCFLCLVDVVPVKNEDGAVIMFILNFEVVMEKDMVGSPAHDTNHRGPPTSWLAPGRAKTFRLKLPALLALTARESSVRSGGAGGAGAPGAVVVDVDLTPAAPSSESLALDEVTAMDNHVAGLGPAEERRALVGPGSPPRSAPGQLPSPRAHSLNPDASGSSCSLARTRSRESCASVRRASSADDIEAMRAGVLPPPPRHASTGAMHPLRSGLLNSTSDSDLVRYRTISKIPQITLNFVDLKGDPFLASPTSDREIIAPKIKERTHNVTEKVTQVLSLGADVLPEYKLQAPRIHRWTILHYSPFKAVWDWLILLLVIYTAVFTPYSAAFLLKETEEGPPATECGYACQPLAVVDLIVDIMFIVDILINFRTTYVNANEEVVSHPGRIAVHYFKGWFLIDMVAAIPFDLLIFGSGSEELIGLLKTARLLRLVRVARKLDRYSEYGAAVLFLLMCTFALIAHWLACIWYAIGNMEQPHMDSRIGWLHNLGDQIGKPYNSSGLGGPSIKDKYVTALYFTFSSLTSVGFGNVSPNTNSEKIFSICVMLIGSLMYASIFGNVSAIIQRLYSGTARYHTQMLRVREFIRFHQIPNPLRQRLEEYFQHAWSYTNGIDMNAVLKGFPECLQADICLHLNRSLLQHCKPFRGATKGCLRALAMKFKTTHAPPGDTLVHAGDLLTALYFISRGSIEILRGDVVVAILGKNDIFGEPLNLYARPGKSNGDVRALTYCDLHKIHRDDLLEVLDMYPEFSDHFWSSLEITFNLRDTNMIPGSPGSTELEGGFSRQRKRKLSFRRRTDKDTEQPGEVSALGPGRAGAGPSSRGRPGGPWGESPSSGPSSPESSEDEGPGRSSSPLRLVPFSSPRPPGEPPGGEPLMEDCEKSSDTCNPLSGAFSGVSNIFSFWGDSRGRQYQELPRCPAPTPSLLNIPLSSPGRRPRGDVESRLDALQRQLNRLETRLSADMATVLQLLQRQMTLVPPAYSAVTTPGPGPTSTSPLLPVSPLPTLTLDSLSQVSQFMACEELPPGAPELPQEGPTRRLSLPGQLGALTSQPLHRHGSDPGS
TEST_PROTOCOL: Cell-based hERG antagonist assay, CHO-K1 cells, tail current
VALUE_KIND: EC50 (µM)

SMILES_ENTRY: CCN(CC)C(=O)[C@@H]1C=C2c3cccc4[nH]c(Br)c(c34)C[C@H]2N(C)C1
UNIT_OF_MEASUREMENT: µM
MEASURED_RESULT: 31.6

* * *

MEASURED_TARGET: Alpha 2B adrenergic receptor (Homo sapiens, UniProt P18089)
Sequence (P18089 1-450): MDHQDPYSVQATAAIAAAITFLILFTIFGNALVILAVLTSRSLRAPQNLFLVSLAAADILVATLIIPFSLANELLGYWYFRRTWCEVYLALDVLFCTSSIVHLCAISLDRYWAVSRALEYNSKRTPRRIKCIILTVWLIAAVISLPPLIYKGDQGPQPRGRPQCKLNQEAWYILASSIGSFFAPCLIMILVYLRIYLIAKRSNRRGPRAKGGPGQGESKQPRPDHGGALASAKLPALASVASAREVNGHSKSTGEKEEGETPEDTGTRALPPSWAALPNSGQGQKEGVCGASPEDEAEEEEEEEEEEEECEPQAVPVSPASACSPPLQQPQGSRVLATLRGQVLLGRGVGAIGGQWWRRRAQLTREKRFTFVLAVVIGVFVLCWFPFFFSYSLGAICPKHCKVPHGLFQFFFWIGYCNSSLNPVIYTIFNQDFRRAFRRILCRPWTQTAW
TEST_PROTOCOL: Functional assay in HEK-293 cells (cAMP)
pIC50: −log10 of the molar value.

COMPOUND: CCN(CC)C(=O)[C@@H]1C=C2c3cccc4[nH]c(Br)c(c34)C[C@H]2N(C)C1 [E559]
MEASURED_TARGET: Alpha 2B adrenergic receptor (Homo sapiens, UniProt P18089)
pIC50: 5.44
